Sourced from patent US20250163119A1

assay: Pharmacokinetics in Cynomolgus monkeys, single subcutaneous or intravenous dose; format: in vivo; conditions: both sexes, cynomolgus monkey, plasma, sc, 187 nmol/kg, single subcutaneous dose 187 nmol/kg, individual animal, read-out: CL/F (converted)
*1 amine or outer side, *2 acyl side, *3 side chain or, on linkers, in order; H or OH if unused. Side-chain parts run from the residue outwards. [ ]: non-standard residue; d: D form. The star is where a group is joined. C20 diacid = O=C(O)CCCCCCCCCCCCCCCCCCC(=O)*; γGlu = O=C(O)[C@H](CCC(=O)[*:2])N[*:1]; εLys = N[C@@H](CCCCN[*:1])C(=O)[*:2]; αMeL = CC(C)C[C@](C)(N)C(=O)O; AEEA = NCCOCCOCC(=O)O; Aib = CC(C)(N)C(=O)O
quantity.kind: CL/F (mL/day/kg)
One number for each entry, in mL/day/kg.

Return reported CL/F; argument: Ac-GSPSIVTS[αMeL]DVPT[Aib][αMeL]LQKILEQERAEKARQQAK([γGlu-AEEA-εLys-C20 diacid])EAAEILAQV-NH2 [SEQ ID NO: 1]
20.8

----------
experiment: Pharmacokinetics in Sprague Dawley rats, single subcutaneous or intravenous dose (incl. 10, 30, 100 nmol/kg dose response); type: in vivo; conditions: rat, plasma; male Sprague Dawley rats; single intravenous dose 183 nmol/kg; Mean; read-out: AUC0-inf
*1 amine or outer side, *2 acyl side, *3 side chain or, on linkers, in order; H or OH if unused. Side-chain parts run from the residue outwards. [ ]: non-standard residue; d: D form. The star is where a group is joined. C20 diacid = O=C(O)CCCCCCCCCCCCCCCCCCC(=O)*; γGlu = O=C(O)[C@H](CCC(=O)[*:2])N[*:1]; εLys = N[C@@H](CCCCN[*:1])C(=O)[*:2]; pGlu = O=C1CC[C@@H](C(=O)O)N1; αMeL = CC(C)C[C@](C)(N)C(=O)O; AEEA = NCCOCCOCC(=O)O; Aib = CC(C)(N)C(=O)O
quantity.kind: AUC0-inf (µM·h)
Answers are plain numbers, in µM·h.

I would be grateful if you could share the reported AUC0-inf for [pGlu]GSPSGIVTS[αMeL]DVPT[Aib][αMeL]LQKILEQERAEKARQQAK([γGlu-AEEA-εLys-C20 diacid])EAAEILAQV-NH2 [SEQ ID NO: 22] .
86.8

----------
experiment: Pharmacokinetics in Sprague Dawley rats, single subcutaneous or intravenous dose (incl. 10, 30, 100 nmol/kg dose response); assay type: in vivo; conditions: male, Sprague Dawley, rat, plasma, sc, 183 nmol/kg, single subcutaneous dose 183 nmol/kg, mean
*1 amine or outer side, *2 acyl side, *3 side chain or, on linkers, in order; H or OH if unused. Side-chain parts run from the residue outwards. [ ]: non-standard residue; d: D form. The star is where a group is joined. C20 diacid = O=C(O)CCCCCCCCCCCCCCCCCCC(=O)*; γGlu = O=C(O)[C@H](CCC(=O)[*:2])N[*:1]; εLys = N[C@@H](CCCCN[*:1])C(=O)[*:2]; pGlu = O=C1CC[C@@H](C(=O)O)N1; αMeL = CC(C)C[C@](C)(N)C(=O)O; AEEA = NCCOCCOCC(=O)O; Aib = CC(C)(N)C(=O)O
quantity.kind: half-life (min)
Numbers only, in min.

Can you look up the measured half-life of [pGlu]GSPSGIVTS[αMeL]DVPT[Aib][αMeL]LQKILEQERAEKARQQAK([γGlu-AEEA-εLys-C20 diacid])EAAEILAQV-NH2 [SEQ ID NO: 22] for me?
1430
